Hello, the source for this data is paper PMC6155811, in case you need it.

increase in glucose uptake values, listed per item
test system: human skeletal muscle cells; test: Glucose uptake in human myotubes ([14C(U)]-glucose); format: cell-based; settings: 10 µM, 2 days, vs 0.1% DMSO control; mean ± SEM

Below, 2 compounds whose answers are already recorded.
[[record]]
compound = "O=c1c(O)c(-c2ccc(O)cc2)oc2cc(O)cc(O)c12"
val = "39.1% ± 5.8%"

[[record]]
compound = "O=c1c(O)c(-c2ccc(O)c(O)c2)oc2cc(O)cc(O)c12"
val = "37.1% ± 4.6%"


Retrieve increase in glucose uptake on human skeletal muscle cells; query COc1cc(-c2oc3cc(O)cc(O)c3c(=O)c2O)ccc1O
18.8% ± 4.3%

Retrieve increase in glucose uptake on human skeletal muscle cells; query CC1OC(OCC2OC(Oc3c(-c4ccc(O)cc4)oc4cc(O)cc(O)c4c3=O)C(O)C(O)C2O)C(O)C(O)C1O (centres unmarked) [Kaempferol-3-rutinoside]
29.7% ± 2.5%

Retrieve increase in glucose uptake on human skeletal muscle cells; query COc1cc(-c2oc3cc(O)cc(O)c3c(=O)c2OC2OC(COC3OC(C)C(O)C(O)C3O)C(O)C(O)C2O)ccc1O (centres unmarked) [Isorhamnetin-3-rutinoside]
10.0% ± 3.6%

* * *

target: Baker's yeast α-glucosidase (Saccharomyces cerevisiae); construct: purchased Sigma-Aldrich Chemie GmbH (Steinheim, Germany); assay: biochemical; conditions: phenolic compounds and metabolites; IC50 ± SD; read-out: α-Glucosidase IC50
Test readout: IC50 (µM)
Please reply with the bare figure in µM and do not write the unit itself.

Below, 5 compounds whose answers are already recorded.
[[record]]
compound = "COc1cc(-c2oc3cc(O)cc(O)c3c(=O)c2OC2OC(COC3OC(C)C(O)C(O)C3O)C(O)C(O)C2O)ccc1O (stereo not drawn) [Isorhamnetin-3-rutinoside]"
test_readout = "IC50"
endpoint_unit = "µM"
val = 25.2

[[record]]
compound = "O=C(O)Cc1ccc(O)c(O)c1 [3,4-Dihydroxyphenylacetic acid]"
test_readout = "IC50"
endpoint_unit = "µM"
val = 78.5

[[record]]
compound = "Oc1cc(O)c2c(c1)O[C@H](c1ccc(O)c(O)c1)[C@@H](O)C2"
test_readout = "IC50"
endpoint_unit = "µM"
val = 18.5

[[record]]
compound = "Cc1ccc(O)c(O)c1"
test_readout = "IC50"
endpoint_unit = "µM"
val = 98.9

[[record]]
compound = "O=C(O)Cc1cccc(O)c1 [3-Hydroxyphenylacetic acid]"
test_readout = "IC50"
endpoint_unit = "µM"
val = 68.9


# return recorded IC50 for entry Oc1cc(O)c2c(c1)O[C@H](c1ccc(O)c(O)c1)[C@H](O)C2 [Epicatechin]
12.1

* * *

target: UniProtKB P80457
Sequence (P80457 whole entry): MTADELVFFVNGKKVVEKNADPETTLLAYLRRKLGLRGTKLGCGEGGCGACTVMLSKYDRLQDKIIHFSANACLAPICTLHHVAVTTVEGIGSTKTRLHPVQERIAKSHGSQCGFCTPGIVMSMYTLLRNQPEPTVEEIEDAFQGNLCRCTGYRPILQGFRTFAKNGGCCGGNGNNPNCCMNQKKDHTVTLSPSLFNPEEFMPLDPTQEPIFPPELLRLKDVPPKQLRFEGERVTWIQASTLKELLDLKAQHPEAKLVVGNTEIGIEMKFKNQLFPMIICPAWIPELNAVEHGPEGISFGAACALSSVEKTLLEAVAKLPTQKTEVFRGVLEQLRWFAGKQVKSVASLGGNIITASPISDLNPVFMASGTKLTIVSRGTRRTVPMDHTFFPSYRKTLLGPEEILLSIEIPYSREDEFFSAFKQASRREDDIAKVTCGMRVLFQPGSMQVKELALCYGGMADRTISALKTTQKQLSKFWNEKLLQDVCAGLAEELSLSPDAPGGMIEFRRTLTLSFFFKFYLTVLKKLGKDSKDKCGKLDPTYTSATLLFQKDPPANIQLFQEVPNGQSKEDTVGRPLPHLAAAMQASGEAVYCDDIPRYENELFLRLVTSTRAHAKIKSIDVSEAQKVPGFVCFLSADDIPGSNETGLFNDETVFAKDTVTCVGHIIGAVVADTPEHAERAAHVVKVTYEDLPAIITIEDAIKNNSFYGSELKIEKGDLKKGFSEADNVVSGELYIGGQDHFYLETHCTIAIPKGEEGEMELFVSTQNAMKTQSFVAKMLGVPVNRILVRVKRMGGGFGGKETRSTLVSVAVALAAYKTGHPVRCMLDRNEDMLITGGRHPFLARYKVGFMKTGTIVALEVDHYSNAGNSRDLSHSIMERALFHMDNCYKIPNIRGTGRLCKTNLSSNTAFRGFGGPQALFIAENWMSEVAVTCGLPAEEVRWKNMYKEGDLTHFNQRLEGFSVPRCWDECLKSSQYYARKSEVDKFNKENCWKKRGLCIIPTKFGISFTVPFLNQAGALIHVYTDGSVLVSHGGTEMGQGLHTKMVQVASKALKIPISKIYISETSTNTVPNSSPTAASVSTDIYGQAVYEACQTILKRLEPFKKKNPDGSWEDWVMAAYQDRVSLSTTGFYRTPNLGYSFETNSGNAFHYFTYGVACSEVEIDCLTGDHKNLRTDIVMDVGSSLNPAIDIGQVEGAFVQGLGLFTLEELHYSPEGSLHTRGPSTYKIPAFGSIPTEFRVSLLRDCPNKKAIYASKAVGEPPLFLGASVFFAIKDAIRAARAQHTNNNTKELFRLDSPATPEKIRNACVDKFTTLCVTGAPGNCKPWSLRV
IC50 values, listed per item

Retrieve IC50 on UniProtKB P80457; query Oc1cc(O)c2c(c1)O[C@H](c1ccc(O)c(O)c1)[C@H](O)C2 [Epicatechin]
> 167 µM

Retrieve IC50 on UniProtKB P80457; query COc1cc(-c2oc3cc(O)cc(O)c3c(=O)c2OC2OC(COC3OC(C)C(O)C(O)C3O)C(O)C(O)C2O)ccc1O (stereo not drawn) [Isorhamnetin-3-rutinoside]
125 µM

Retrieve IC50 on UniProtKB P80457; query O=C1C[C@@H](c2ccc(O)cc2)Oc2cc(O)cc(O)c21
95.1 µM

* * *

target: Baker's yeast α-glucosidase (Saccharomyces cerevisiae, UniProt P53341); construct: purchased Sigma-Aldrich Chemie GmbH (Steinheim, Germany); test: biochemical; details: α-Glucosidase IC50, phenolic compounds and metabolites; IC50 ± SD
Sequence (P53341 whole entry): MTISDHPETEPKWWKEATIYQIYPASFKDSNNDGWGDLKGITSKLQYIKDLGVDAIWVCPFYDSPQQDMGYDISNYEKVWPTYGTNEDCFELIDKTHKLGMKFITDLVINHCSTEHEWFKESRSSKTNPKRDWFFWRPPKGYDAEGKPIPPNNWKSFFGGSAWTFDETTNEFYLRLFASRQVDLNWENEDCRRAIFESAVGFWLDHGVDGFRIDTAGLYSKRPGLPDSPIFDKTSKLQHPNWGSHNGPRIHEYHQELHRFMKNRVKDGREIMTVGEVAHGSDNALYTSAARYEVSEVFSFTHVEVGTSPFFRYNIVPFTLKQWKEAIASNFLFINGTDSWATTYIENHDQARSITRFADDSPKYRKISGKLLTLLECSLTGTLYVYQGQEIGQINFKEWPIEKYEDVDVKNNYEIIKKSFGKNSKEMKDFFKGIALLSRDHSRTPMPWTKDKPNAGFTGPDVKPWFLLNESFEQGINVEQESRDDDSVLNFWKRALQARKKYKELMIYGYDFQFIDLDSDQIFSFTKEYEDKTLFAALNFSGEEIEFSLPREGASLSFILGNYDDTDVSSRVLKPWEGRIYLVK
log10 of IC50 values, listed per item
Please note: log10 values; quantity IC50; unit µM.

Below, 6 molecules whose answers are already recorded.
[[record]]
molecule = "CC1OC(OCC2OC(Oc3c(-c4ccc(O)cc4)oc4cc(O)cc(O)c4c3=O)C(O)C(O)C2O)C(O)C(O)C1O (stereo not shown) [Kaempferol-3-rutinoside]"
val = 1.38

[[record]]
molecule = "O=c1c(OC2OC(CO)C(O)C(O)C2O)c(-c2ccc(O)c(O)c2)oc2cc(O)cc(O)c12 (stereo not shown) [Quercetin-3-glucoside]"
val = 0.61

[[record]]
molecule = "CC1OC(Oc2c(-c3ccc(O)c(O)c3)oc3cc(O)cc(O)c3c2=O)C(O)C(O)C1O (stereo not shown) [Quercetin-3-rhamnoside]"
val = 0.59

[[record]]
molecule = "COc1cc(-c2oc3cc(O)cc(O)c3c(=O)c2O)ccc1O"
val = 0.91

[[record]]
molecule = "C[C@@H]1O[C@@H](OC[C@H]2O[C@@H](Oc3c(-c4ccc(O)c(O)c4)oc4cc(O)cc(O)c4c3=O)[C@H](O)[C@@H](O)[C@@H]2O)[C@H](O)[C@H](O)[C@H]1O [Rutin, Quercetin-3-rutinoside]"
val = 0.66

[[record]]
molecule = "O=C(O)/C=C/c1ccc(O)c(O)c1"
val = 1.27


# return recorded log10 of IC50 for entry O=C(O)c1ccccc1
2.11
